As shown below, each of these compounds has a reported pIC50 value.
# test target: Isocitrate dehydrogenase [NADP] cytoplasmic (Homo sapiens, UniProt O75874, R132H)
# Sequence (O75874 2-414 R132H limits assumed): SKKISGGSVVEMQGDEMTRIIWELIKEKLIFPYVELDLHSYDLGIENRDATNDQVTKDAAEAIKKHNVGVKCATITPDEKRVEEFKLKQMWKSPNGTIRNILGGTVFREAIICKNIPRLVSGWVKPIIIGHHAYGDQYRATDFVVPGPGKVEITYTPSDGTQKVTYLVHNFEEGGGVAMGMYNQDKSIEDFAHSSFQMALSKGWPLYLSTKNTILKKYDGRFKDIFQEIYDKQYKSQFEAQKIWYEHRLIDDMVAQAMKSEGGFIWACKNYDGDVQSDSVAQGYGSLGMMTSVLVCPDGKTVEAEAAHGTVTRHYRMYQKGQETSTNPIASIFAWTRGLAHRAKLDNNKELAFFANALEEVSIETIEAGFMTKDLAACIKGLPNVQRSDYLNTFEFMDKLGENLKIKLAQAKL
# test method notes: Inhibition of IDH1 R132H mutant using alpha-ketoglutarate as substrate after 60 mins by resazurin-based fluorimetric analysis
pIC50: −log10 of the molar value.
quantity kind: pIC50

> print(dat)
                                    compound  qual  result
 1  Cc1ccccc1C(C(=O)NC1CCCCC1)N(C(=O)Cc1cscn1)c1cccc(F)c1 (racemic)     =    7.00
 2  Cc1ccccc1NC(=O)C(c1ccccc1C)N(C(=O)Cc1cccs1)c1cccc(F)c1 (racemic)     =    6.24
 3  Cc1ccccc1C(C(=O)NC1CCCC1)N(C(=O)Cc1cccs1)c1cccc(F)c1 (stereo not drawn)     =    7.05
 4  Cc1ccccc1C(C(=O)NC1CCCCC1)N(C(=O)Cn1c(C)nc2ccccc21)c1cccc(F)c1 (racemic)     =    7.10
 5  Cc1ccccc1C(C(=O)NC1CCCCC1)N(C(=O)Cc1cncnc1)c1cccc(F)c1 (racemic)     =    5.96
 6  Cc1ccccc1C(CNC1CCCCC1)N(C(=O)Cc1cccs1)c1cccc(F)c1 (racemic)     <    4.00
 7  O=C(NC1CCCCC1)C(c1ccccc1)N(C(=O)Cc1cccs1)c1cccc(F)c1 (stereo not drawn)     =    7.10
 8  Cc1ccccc1C(C(=O)NC1CCCCC1)N(C(=O)CN)c1cccc(F)c1 (racemic)     =    5.11
 9  Cc1ccccc1C(C(=O)NC1CCCCC1)N(C(=O)CN(C)c1ccccc1)c1cccc(F)c1 (racemic)     =    7.30
10  Cc1ccccc1C(C(=O)NC1CCCCC1)N(C(=O)Cc1ccncc1)c1cccc(F)c1 (racemic)     =    7.30
11  Cc1ccccc1C(C(=O)NC1CCCCC1)N(C(=O)Cn1ccnc1C)c1cccc(F)c1 (racemic)     =    7.15
12  Cc1ccccc1C(C(=O)NC1CCCCC1)N(C(=O)CN1CCOCC1)c1cccc(F)c1 (racemic)     =    6.62
13  Cc1ccccc1C(C(=O)NC(C)(C)C)N(C(=O)Cc1cccs1)c1cccc(F)c1 (racemic)     =    6.07
14  Cc1ccccc1C(C(=O)NC1CCCCC1)N(C(=O)CNc1ccccc1)c1cccc(F)c1 (racemic)     =    7.22
15  CC(C(=O)NC1CCCCC1)(c1ccccc1)N(C(=O)Cc1cccs1)c1cccc(F)c1 (racemic)     =    5.85
16  CN(C(=O)C(c1ccccc1)N(C(=O)Cc1cccs1)c1cccc(F)c1)C1CCCCC1 (racemic)     =    5.44
17  Cc1ccccc1C(C(=O)NC1CCOCC1)N(C(=O)Cc1cccs1)c1cccc(F)c1 (racemic)     =    6.19
18  Cc1ccccc1C(C(=O)NC1CCCCC1)N(C(=O)Cc1cccs1)c1cccc(F)c1 (racemic)     =    7.30

====

# test target: Isocitrate dehydrogenase [NADP] cytoplasmic (Homo sapiens, UniProt O75874, R132C)
# Sequence (O75874 2-414 R132C limits assumed): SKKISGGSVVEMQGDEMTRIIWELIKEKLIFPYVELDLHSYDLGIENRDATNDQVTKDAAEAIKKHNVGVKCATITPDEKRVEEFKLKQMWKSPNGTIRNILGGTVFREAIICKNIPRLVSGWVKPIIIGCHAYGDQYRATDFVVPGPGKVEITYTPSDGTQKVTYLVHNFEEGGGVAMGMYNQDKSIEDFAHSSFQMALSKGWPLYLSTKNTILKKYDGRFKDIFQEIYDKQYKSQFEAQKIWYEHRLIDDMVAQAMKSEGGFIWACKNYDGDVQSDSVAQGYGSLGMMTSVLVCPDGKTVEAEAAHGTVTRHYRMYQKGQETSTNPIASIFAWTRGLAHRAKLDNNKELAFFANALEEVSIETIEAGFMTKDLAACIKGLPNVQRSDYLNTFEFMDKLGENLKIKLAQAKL
# test method notes: Inhibition of IDH1 R132C mutant using alpha-ketoglutarate as substrate after 60 mins by resazurin-based fluorimetric analysis
pIC50: −log10 of the molar value.
quantity kind: pIC50

> print(dat)
                                   molecule  result
1  Cc1ccccc1C(C(=O)NC1CCCCC1)N(C(=O)Cc1cscn1)c1cccc(F)c1 (racemic)    7.22
2  Cc1ccccc1C(C(=O)NC1CCCCC1)N(C(=O)Cn1ccc2ccccc21)c1cccc(F)c1 (racemic)    7.40
3  Cc1ccccc1C(C(=O)NC1CCCCC1)N(C(=O)Cn1c(C)nc2ccccc21)c1cccc(F)c1 (racemic)    7.40
4  Cc1ccccc1C(C(=O)NC1CCCCC1)N(C(=O)Cc1cccs1)c1cccc(F)c1 (racemic)    7.52

====

# test method notes: Plasma protein binding in mouse by equilibrium dialysis method
# Assay type: ADME, cell-free
# study conditions: read-out: PPB (converted)
quantity kind: fraction unbound

> print(dat)
                                   compound     quantity.kind  result
1  Cc1ccccc1C(C(=O)NC1CCCCC1)N(C(=O)Cn1ccnc1C)c1cccc(F)c1 (racemic)  fraction unbound   0.043

====

# test target: Isocitrate dehydrogenase [NADP] cytoplasmic (Homo sapiens)
# test method notes: Inhibition of wild type IDH1 using DL-isocitrate as substrate by resazurin-based fluorimetric analysis relative to control
# maps each entry to its Imax
quantity kind: Imax (%)

> print(dat)
                                   compound  quantity.kind  unit.of.measure  result
1  Cc1ccccc1C(C(=O)NC1CCCCC1)N(C(=O)Cc1c[nH]c2ccccc12)c1cccc(F)c1 (racemic)           Imax                %      39
2  Cc1ccccc1C(C(=O)NC1CCCCC1)N(C(=O)Cc1ccncc1)c1cccc(F)c1 (racemic)           Imax                %      34
3  Cc1ccccc1C(C(=O)NC1CCCCC1)N(C(=O)Cc1cscn1)c1cccc(F)c1 (racemic)           Imax                %      32
4  Cc1ccccc1C(C(=O)NC1CCCC1)N(C(=O)Cc1cccs1)c1cccc(F)c1 (stereo not given)           Imax                %      32
5  Cc1ccccc1C(C(=O)NC1CCCCC1)N(C(=O)Cc1cccs1)c1cccc(F)c1 (racemic)           Imax                %      22

====

# test method notes: AUC (0 to 24 hrs) in mouse at 50 mg/kg, ip
# Type: ADME, organism-based
# Design: time < 24 hr, dose 50 mg/kg, route intraperitoneal
# study conditions: plasma
quantity kind: AUC(0-t) at 24 h

> print(dat)
                                   molecule     quantity.kind         result
1  Cc1ccccc1C(C(=O)NC1CCCCC1)N(C(=O)Cn1ccnc1C)c1cccc(F)c1 (racemic)  AUC(0-t) at 24 h  20800 ng·h/mL

====

# test target: Isocitrate dehydrogenase [NADP] cytoplasmic (Homo sapiens, UniProt O75874, R132H)
# test method notes: Inhibition of IDH1 R132H mutant using alpha-ketoglutarate as substrate after 60 mins by resazurin-based fluorimetric analysis
So basically: is IC50 under 300 nM? Then yes (1). Not under? Then no (0).

> print(dat)
                                   compound  label.class
1  Cc1ccccc1C(C(=O)NC1CC1)N(C(=O)Cc1cccs1)c1cccc(F)c1 (racemic)       no (0)
2  Cc1ccccc1C(C(=O)NC1CCCCC1)N(C(=O)Cn1cncn1)c1cccc(F)c1 (racemic)      yes (1)
3  O=C(NC1CCCCC1)[C@H](c1ccccc1)N(C(=O)Cc1cccs1)c1cccc(F)c1      yes (1)
4  Cc1ccccc1C(C(=O)NC1CCNCC1)N(C(=O)Cc1cccs1)c1cccc(F)c1 (racemic)       no (0)
5  Cc1ccccc1C(C(=O)NC1CCCCC1)N(C(=O)CN1CCCC1)c1cccc(F)c1 (racemic)       no (0)
6  Cc1ccccc1C(C(=O)NC1CCCCC1)N(C(=O)CNC1CCCCC1)c1cccc(F)c1 (racemic)       no (0)
7  Cc1ccccc1C(C(=O)NC1CCCCC1)N(C(=O)Cn1ccc2ccccc21)c1cccc(F)c1 (racemic)      yes (1)
8  Cc1ccccc1C(C(=O)NC1CCC1)N(C(=O)Cc1cccs1)c1cccc(F)c1 (racemic)      yes (1)

====

// IC50 lookup, one value per entry
# test target: Isocitrate dehydrogenase [NADP] cytoplasmic (Homo sapiens, UniProt O75874, R132C)
# test method notes: Inhibition of IDH1 R132C mutant endogenously expressing human HT1080 cells assessed as inhibition of 2-hydroxyglutarate production after 48 hrs by LC/MS analysis
quantity kind: IC50 (nM)

> print(dat)
                                   molecule  quantity.kind  unit.of.measure  result
1  Cc1ccccc1C(C(=O)NC1CCCCC1)N(C(=O)Cc1ccncc1)c1cccc(F)c1 (racemic)           IC50               nM     260
2  Cc1ccccc1C(C(=O)NC1CCCC1)N(C(=O)Cc1cccs1)c1cccc(F)c1 (stereo not drawn)           IC50               nM     390
3  Cc1ccccc1C(C(=O)NC1CCCCC1)N(C(=O)Cc1cscn1)c1cccc(F)c1 (racemic)           IC50               nM     220
4  Cc1ccccc1C(C(=O)NC1CCCCC1)N(C(=O)Cn1ccnc1C)c1cccc(F)c1 (racemic)           IC50               nM     480
5  Cc1ccccc1C(C(=O)NC1CCCCC1)N(C(=O)Cc1cccs1)c1cccc(F)c1 (racemic)           IC50               nM     150
6  Cc1ccccc1C(C(=O)NC1CCCCC1)N(C(=O)Cn1ccc2ccccc21)c1cccc(F)c1 (racemic)           IC50               nM     170
7  Cc1ccccc1C(C(=O)NC1CCCCC1)N(C(=O)Cn1c(C)nc2ccccc21)c1cccc(F)c1 (racemic)           IC50               nM     110
8  Cc1ccccc1C(C(=O)NC1CCCCC1)N(C(=O)Cc1c[nH]c2ccccc12)c1cccc(F)c1 (racemic)           IC50               nM      90
